- assayRemarks: in vivo
- assayConditions: mouse, in vivo
Counter-ions that a name gives are not always drawn.
metricName: selectivity ratio
Lab note: record the figure alone, no unit after it.

The value of selectivity ratio measured for the molecule CC1CN=C(c2ccc(-c3nsc4ccccc34)cc2)N1 (centres unmarked) [Example 3, hydrochloride] turned out to be 2.76

The value of selectivity ratio measured for the molecule c1ccc2c(-c3ccc(C4=NCCCN4)cc3)nsc2c1 [Example 2, hydrochloride] turned out to be 4.03
